target: JAK1 (Homo sapiens, UniProt P23458); construct: GST; purchased Life Technologies; assay: Biochemical LanthaScreen JAK1 kinase assay; conditions: Km ATP 25 μM; pKi from pIC50 by Cheng-Prusoff; read-out: JAK 1 (pKi) (converted)
Sequence (P23458 whole entry): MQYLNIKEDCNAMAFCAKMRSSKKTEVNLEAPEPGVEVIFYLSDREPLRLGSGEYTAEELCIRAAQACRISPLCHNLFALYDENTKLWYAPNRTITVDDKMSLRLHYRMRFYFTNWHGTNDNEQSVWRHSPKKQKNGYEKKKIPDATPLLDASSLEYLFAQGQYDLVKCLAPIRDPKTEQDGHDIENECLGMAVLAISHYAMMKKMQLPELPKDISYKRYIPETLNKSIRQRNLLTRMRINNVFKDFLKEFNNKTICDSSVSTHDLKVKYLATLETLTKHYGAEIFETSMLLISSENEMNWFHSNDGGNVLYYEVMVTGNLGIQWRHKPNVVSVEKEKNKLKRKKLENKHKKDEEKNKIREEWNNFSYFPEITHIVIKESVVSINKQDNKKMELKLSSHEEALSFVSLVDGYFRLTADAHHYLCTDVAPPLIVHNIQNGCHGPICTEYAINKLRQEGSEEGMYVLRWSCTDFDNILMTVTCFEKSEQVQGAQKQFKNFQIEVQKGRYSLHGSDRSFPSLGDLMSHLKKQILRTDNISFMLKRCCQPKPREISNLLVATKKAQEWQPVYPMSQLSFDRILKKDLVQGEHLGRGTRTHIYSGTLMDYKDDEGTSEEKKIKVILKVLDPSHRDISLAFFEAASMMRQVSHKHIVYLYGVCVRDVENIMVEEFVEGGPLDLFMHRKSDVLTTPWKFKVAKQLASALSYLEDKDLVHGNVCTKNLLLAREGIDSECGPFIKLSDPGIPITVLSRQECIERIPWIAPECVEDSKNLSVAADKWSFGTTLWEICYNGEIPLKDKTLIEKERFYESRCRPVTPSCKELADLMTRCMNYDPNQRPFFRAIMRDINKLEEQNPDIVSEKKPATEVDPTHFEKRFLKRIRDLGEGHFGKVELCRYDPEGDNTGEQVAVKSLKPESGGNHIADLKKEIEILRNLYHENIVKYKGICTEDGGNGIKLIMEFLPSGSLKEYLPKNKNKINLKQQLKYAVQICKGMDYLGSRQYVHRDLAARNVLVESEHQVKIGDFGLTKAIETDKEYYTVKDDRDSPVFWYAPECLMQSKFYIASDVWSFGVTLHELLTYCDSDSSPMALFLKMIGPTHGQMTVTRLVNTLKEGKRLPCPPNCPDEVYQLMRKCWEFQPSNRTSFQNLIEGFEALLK
measure: Ki

Examples with answers:
                            molecularstring          val
0  CCCC(=O)OCc1nc(N(C)[C@@H]2C[C@H]3CCC[C@@H](C2)N3S(=O)(=O)CC)nc(Nc2cc(C)[nH]n2)c1F  0.1 to 1 nM
1  CCCCCCC(=O)OCc1nc(N(C)[C@@H]2C[C@H]3CCC[C@@H](C2)N3S(=O)(=O)CC)nc(Nc2cc(C)[nH]n2)c1F   1 to 10 nM
2  CCS(=O)(=O)N1[C@@H]2CCC[C@H]1C[C@H](N(C)c1nc(COC(=O)OC3CCCCC3)c(F)c(Nc3cc(C)[nH]n3)n1)C2   1 to 10 nM
3  CCS(=O)(=O)N1[C@@H]2CCC[C@H]1C[C@H](N(C)c1nc(COC(=O)C3CCOCC3)c(F)c(Nc3cc(C)[nH]n3)n1)C2  0.1 to 1 nM
4  CCS(=O)(=O)N1[C@@H]2CCC[C@H]1C[C@H](N(C)c1nc(COC(=O)OC(C)C)c(F)c(Nc3cc(C)[nH]n3)n1)C2  0.1 to 1 nM

Return Ki measured with JAK1 (Homo sapiens, UniProt P23458) given this compound: CCS(=O)(=O)N1[C@@H]2CCC[C@H]1C[C@H](N(C)c1nc(COC(C)=O)c(F)c(Nc3cc(C)[nH]n3)n1)C2
0.1 to 1 nM

Return Ki measured with JAK1 (Homo sapiens, UniProt P23458) given this compound: CCC(=O)OCc1nc(N(C)[C@@H]2C[C@H]3CCC[C@@H](C2)N3S(=O)(=O)CC)nc(Nc2cc(C)[nH]n2)c1F
0.1 to 1 nM
